- MEASURED_ON: cyclooxygenase-1 (COX-1) (Homo sapiens)
- Construct: human U-937 cells (which specifically express cyclooxygenase-1); endogenous in cells; host or cells: human U-937 cells (whole cells, and microsomes prepared from them)
- Sequence (P23219 24-599): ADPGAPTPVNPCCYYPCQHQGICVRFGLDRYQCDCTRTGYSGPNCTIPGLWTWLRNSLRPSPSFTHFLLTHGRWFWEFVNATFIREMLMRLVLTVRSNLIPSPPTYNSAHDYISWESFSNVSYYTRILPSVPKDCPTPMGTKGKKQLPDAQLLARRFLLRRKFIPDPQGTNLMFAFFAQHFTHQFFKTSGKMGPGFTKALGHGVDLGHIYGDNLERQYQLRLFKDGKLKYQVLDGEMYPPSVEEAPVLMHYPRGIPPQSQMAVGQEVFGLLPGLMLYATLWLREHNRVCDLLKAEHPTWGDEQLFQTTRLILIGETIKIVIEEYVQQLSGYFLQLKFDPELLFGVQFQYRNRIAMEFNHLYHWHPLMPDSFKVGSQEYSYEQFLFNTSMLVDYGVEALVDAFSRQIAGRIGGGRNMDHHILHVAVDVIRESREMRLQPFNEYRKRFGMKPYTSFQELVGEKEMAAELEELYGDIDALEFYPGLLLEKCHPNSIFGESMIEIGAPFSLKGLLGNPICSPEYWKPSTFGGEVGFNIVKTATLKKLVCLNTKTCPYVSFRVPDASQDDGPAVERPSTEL
- ASSAY_NAME: Microsomal cyclooxygenase assay, COX-1 (PGE2 synthesis, microsomes of human U-937 cells)
- Type: biochemical
- ASSAY_CONDITIONS: 100 nM; read-out: Microsomes COX-1 % inhib.
REPORTED_ENDPOINT: inhibition at 0.1 µM (%)

Look over these answered cases.
Name the reported inhibition at 0.1 µM value associated with the molecule CC(C)c1cc(-c2ccc(S(N)(=O)=O)cc2)c(-c2ccc(F)cc2)s1
12

Another molecule to look at: NS(=O)(=O)c1ccc(C2=C(c3ccc(F)cc3)C(=O)OC2)cc1
12

Another molecule to look at: CS(=O)(=O)c1ccc(-c2cocc2-c2ccc(F)cc2)cc1
7

Another molecule to look at: CC(C)(O)c1cc(-c2ccc(S(N)(=O)=O)cc2)c(-c2ccc(F)cc2)s1
8

[I] Cc1nc(-c2ccc(F)cc2)c(-c2ccc(S(C)(=O)=O)cc2)s1
[II] O=C(NS(=O)(=O)c1ccc(-c2ccsc2-c2ccc(F)cc2)cc1)C(F)(F)F
Among I and II , whose measured inhibition at 0.1 µM is the smaller figure? // caller expects the label of the chosen entry
II
